# systemTested: cGMP specific PDE (Phosphodiesterase type V) (Bos taurus, UniProt Q28156)
# Construct: The PDE V in enzyme is isolated from bovine aorta
# method: cGMP specific PDE (PDE V) inhibition, "one step" assay
# settings: PDE V isolated from bovine aorta; concentration of inhibitor required for 50% inhibition of enzyme activity; read-out: IC₅₀
pIC50: −log10 of the molar value.
pIC50 values by entry

[
  {
    "compound": "CCCOc1ccc(NC(C)=O)cc1-c1nc2c(c(C)nn2C)c(=O)[nH]1 [Example 15]",
    "systemTested": "cGMP specific PDE (Phosphodiesterase type V) (Bos taurus, UniProt Q28156)",
    "pIC50": "8.00 to 9.00"
  },
  {
    "compound": "CCCOc1ccc(-c2csc(C)n2)cc1-c1nc2c(c(C)nn2CC)c(=O)[nH]1 [Example 63]",
    "systemTested": "cGMP specific PDE (Phosphodiesterase type V) (Bos taurus, UniProt Q28156)",
    "pIC50": "8.00 to 9.00"
  },
  {
    "compound": "CCCOc1ccc(-c2csc(-c3cccnc3)n2)cc1-c1nc2c(c(C)nn2CC)c(=O)[nH]1 [Example 65]",
    "systemTested": "cGMP specific PDE (Phosphodiesterase type V) (Bos taurus, UniProt Q28156)",
    "pIC50": "8.00 to 9.00"
  },
  {
    "compound": "CCCOc1ccc(NC(=O)c2cccs2)cc1-c1nc2c(c(C)nn2C)c(=O)[nH]1 [Example 19]",
    "systemTested": "cGMP specific PDE (Phosphodiesterase type V) (Bos taurus, UniProt Q28156)",
    "pIC50": "8.00 to 9.00"
  },
  {
    "compound": "CCCOc1ccc(NC(=S)NCC)cc1-c1nc2c(c(C)nn2C)c(=O)[nH]1 [Example 31]",
    "systemTested": "cGMP specific PDE (Phosphodiesterase type V) (Bos taurus, UniProt Q28156)",
    "pIC50": "8.00 to 9.00"
  },
  {
    "compound": "CCCOc1ccc(-c2n[nH]c(-c3ccccc3)n2)cc1-c1nc2c(c(C)nn2C)c(=O)[nH]1 [Example 67]",
    "systemTested": "cGMP specific PDE (Phosphodiesterase type V) (Bos taurus, UniProt Q28156)",
    "pIC50": "8.00 to 9.00"
  },
  {
    "compound": "CCCOc1ccc(NC(=O)OCC)cc1-c1nc2c(c(C)nn2C)c(=O)[nH]1 [Example 22]",
    "systemTested": "cGMP specific PDE (Phosphodiesterase type V) (Bos taurus, UniProt Q28156)",
    "pIC50": "8.00 to 9.00"
  }
]

Okay, next one:
Query string: // lookup pIC50 | system=cGMP specific PDE (Phosphodiesterase type V) (Bos taurus, UniProt Q28156) | key= CCCOc1ccc(N)cc1-c1nc2c(c(C)nn2C)c(=O)[nH]1 [Example 7]
Result string: 8.00 to 9.00
